Tested on: ragweed (common ragweed, Ambrosia elatior)
Experiment: Test A preemergence
Type: in vivo
Details: Ambrosia artemisiifolia, pre-emergence, 240 h, 500 g ai/ha, preemergence; visual injury rating about 10 d after treatment, 0 to 100 scale (0 no effect, 100 complete control); read-out: Ragweed plant response rating
Source text: […]
Response field label takes true when pest or weed control at 500 g/ha is strictly below 30% and false in all other cases.

Determine if `O=C1NC[C@H](c2cc(C(F)(F)F)cs2)[C@H]1C(=O)Nc1cccc(F)c1F` shows pest or weed control at 500 g/ha strictly lower than 30%.
false

Try `Cc1ccc([C@H]2CNC(=O)[C@@H]2C(=O)Nc2cccc(F)c2C)cc1C` next.
false

Try `CC(=O)Oc1ccc(F)c(NC(=O)[C@H]2C(=O)N(C)C[C@@H]2c2cc(F)cc(F)c2)c1` next.
true

Try `Cc1ccc(NC(=O)[C@H]2C(=O)N(C)C[C@@H]2c2cc(F)cc(F)c2)cc1` next.
true

Try `CC(C)COc1cccc([C@H]2CNC(=O)[C@@H]2C(=O)Nc2ccccc2F)c1` next.
true

Try `CCOc1cccc([C@H]2CN(C)C(=O)[C@@H]2C(=O)Nc2ccc(F)cc2F)c1` next.
true

Try `Cc1ccc([C@H]2CN(C)C(=O)[C@@H]2C(=O)Nc2cccc(F)c2C)cc1Cl` next.
true

Try `Cc1cc([C@H]2CN(C)C(=O)[C@@H]2C(=O)Nc2ccccc2F)cc(C)c1Br` next.
false

Try `CC(C)COc1cccc([C@H]2CN(C)C(=O)[C@@H]2C(=O)Nc2ccc(F)cc2F)c1` next.
true

Try `Cc1c(F)cccc1NC(=O)[C@H]1C(=O)N(C)C[C@@H]1c1cc(F)cc(C(F)(F)F)c1` next.
true
